test system: Hordeum murinum; assay: Post-emergence herbicidal action; assay type: in vivo; details: 1280 g/ha, rated visually after about 3 weeks vs untreated controls
READOUT_TYPE: herbicidal activity on Hordeum murinum (%)
Give the number; % is assumed, so skip it.

q: Data request, read-out herbicidal activity on Hordeum murinum, for Cc1c(Sc2ccccc2)c(Oc2ncccn2)nn1C
a: 80

q: And then Cc1c(Sc2ccccc2)c(Oc2ncc(F)cn2)nn1C , what is it?
a: 90

q: And then Cc1c(Sc2cccc(Cl)c2)c(Oc2ncccn2)nn1C , what is it?
a: 80

q: And then COc1cnc(Oc2nn(C)c(C)c2Sc2ccccc2)nc1 , what is it?
a: 80

q: And then Cc1c(Sc2ccc(F)c(F)c2)c(Oc2ncc(F)cn2)nn1C , what is it?
a: 90
